# System: FMOC24 (patient-derived high-grade serous ovarian cancer cells)
# test_name: drug sensitivity score (DSS3, normalised partial AUC of % inhibition dose-response) (DSS (score)); higher = more sensitive (stronger inhibition of viability); extreme values may be limits of the assay
# applied_conditions: 72 h; library: FO5A; assay format: 2D, 384-well, CellTiter-Glo
Use label 1 when the recorded drug sensitivity score is no lower than 3; use label 0 when it is lower.

{"compound": "Cc1c(N)nc([C@H](CC(N)=O)NC[C@H](N)C(N)=O)nc1C(=O)N[C@H](C(=O)N[C@H](C)[C@@H](O)[C@H](C)C(=O)N[C@H](C(=O)NCCc1nc(-c2nc(C(=O)NCCC[S+](C)C)cs2)cs1)[C@@H](C)O)[C@@H](OC1OC(CO)C(O)C(O)C1OC1OC(CO)C(O)C(OC(N)=O)C1O)c1cnc[nH]1 (stereo partly drawn)", "class": "label 1"}
{"compound": "CC1(C)OCCn2c1nc1c(N3CCOCC3)nc(-c3cnc(N)nc3)nc12", "class": "label 1"}
{"compound": "C=CC(=O)Nc1cc(Nc2nccc(-c3cn(C)c4ccccc34)n2)c(OC)cc1N(C)CCN(C)C", "class": "label 1"}
{"compound": "N#CC(c1ccnc(OCc2ccc(CN3CCOCC3)cc2)n1)c1nc2ccccc2s1 (stereo not drawn)", "class": "label 1"}
{"compound": "COc1cc(OC2CCN(C)CC2)ccc1Nc1ncc2c(n1)n(C1CCCC1)c(=O)n2C", "class": "label 1"}
{"compound": "N#CCNC(=O)c1ccc(-c2ccnc(Nc3ccc(N4CCOCC4)cc3)n2)cc1", "class": "label 1"}
{"compound": "COCCOc1cnc2ccn([C@H](C)c3nnc4c(F)cc(-c5cnn(C)c5)cn34)c(=O)c2c1", "class": "label 0"}
{"compound": "O=S(=O)(c1cccc2c(O)nccc12)N1CCCNCC1 [Hydroxyfasudil]", "class": "label 0"}

Request: Please indicate if the recorded drug sensitivity score for CC(=O)Nc1cccc(-n2c(=O)n(C3CC3)c(=O)c3c(Nc4ccc(I)cc4F)n(C)c(=O)c(C)c32)c1 meets or exceeds 3.
Result: label 0

Request: How about Nc1nc(NC2CC2)cc(-c2cccc(Cl)c2Cl)n1 ?
Result: label 0

Request: // query: CCC/C=C/C=C/C(=O)O[C@H]1/C(=C/C(=O)OC)C[C@H]2C[C@H]([C@@H](C)O)OC(=O)C[C@H](O)C[C@@H]3C[C@H](OC(C)=O)C(C)(C)[C@](O)(C[C@@H]4C/C(=C/C(=O)OC)C[C@H](/C=C/C(C)(C)[C@]1(O)O2)O4)O3
Result: label 1

Request: Also check CN1CCN(CCOc2cc(OC3CCOCC3)c3c(Nc4c(Cl)ccc5c4OCO5)ncnc3c2)CC1
Result: label 1
